# TEST PROTOCOL: Plasma binding of 5-MIAA (unbound fraction)
# Type: in vitro ADME
# CONDITION CONTEXT: human
OBSERVATION TYPE: recovery (%)
# value in %; strip the unit string

What measured recovery goes with COc1ccc2[nH]cc(CC(=O)O)c2c1 ? 81.4

* * *

# TEST PROTOCOL: Plasma binding of 5-MIAA (unbound fraction)
# Assay type: in vitro ADME
# CONDITION CONTEXT: human, read-out: unbound fraction (fu), Replicate 3
OBSERVATION TYPE: fraction unbound
Please reply with the number alone, leaving off any unit.

What measured fraction unbound goes with COc1ccc2[nH]cc(CC(=O)O)c2c1 [5-MIAA, 5-methoxyindole-3-acetic acid] ? 0.544
